- Test system: K4 kissing-loop RNA reporter;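 also: bound reporter read as fluorescence of individual clusters on recovered sequencing chips by microscopy, with normalized cluster intensities fitted with a binding model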
- Protocol notes: apparent KD of K4 kissing-loop reporter; higher = weaker reporter binding
- Measurement setup: Eterna round: R107; input ligand: none
Each entry below carries its reported apparent KD of K4 kissing-loop reporter.
Endpoint label: apparent KD of K4 kissing-loop reporter

• GGUAGCAUCGCGGCCGCCACUAAUCGCUAAGGCUCAGGACCCUAAUAGCGAGUGAUGUUCGCCCUUAGGACCGGGCGAUGCUACC = 101 nM
• UGAUAGGACAGAAGGAGCGGAAGUGAUGUUUCCAAAAGGGUAAGGUGUCAAAAGACACCCUUCCAGGUAGGUCGCUGUCCUAUCU = 99 nM
• GAUUUAGAGGCGGCCGCCACUAGUGAUGUUAGUGAUGUUUGAUACUGAAUAUAUCUGCGAGUAGAUAGGACCGGGCCAGAUGGAG [plmfmullin] = 195 nM

Values from the supplement of paper PMC9170038
